Source: a collection of fitness landscapes (doi:10.1126/science.1257360)

B1: PhoQ; a variant is named by its letters at X, in order, P23837 (parent)
chain: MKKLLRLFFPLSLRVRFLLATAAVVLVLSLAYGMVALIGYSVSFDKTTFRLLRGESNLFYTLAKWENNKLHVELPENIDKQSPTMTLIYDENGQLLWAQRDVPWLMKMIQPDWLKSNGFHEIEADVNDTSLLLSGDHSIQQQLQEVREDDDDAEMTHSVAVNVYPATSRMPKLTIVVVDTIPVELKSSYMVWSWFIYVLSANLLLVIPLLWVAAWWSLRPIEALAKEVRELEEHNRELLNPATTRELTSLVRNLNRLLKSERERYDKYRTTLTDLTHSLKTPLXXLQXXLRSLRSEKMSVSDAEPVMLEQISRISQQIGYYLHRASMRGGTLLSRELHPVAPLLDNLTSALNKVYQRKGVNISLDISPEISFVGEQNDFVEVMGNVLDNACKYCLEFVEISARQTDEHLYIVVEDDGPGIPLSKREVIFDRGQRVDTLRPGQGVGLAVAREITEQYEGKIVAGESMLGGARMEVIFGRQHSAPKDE

- Variants of: B1
- test.protocol: enrichment ratio after two sorts for PhoP signalling (ratio (wild type AVST 3.29)); higher = more functional
- condition.details: with PhoP (E. coli)
Over roughly 140,000 sequences, “enrichment ratio after two sorts for PhoP signalling” has its median near 0; the highest 2% begin near 11. Shown is part of a subset that was picked to be rich in the highest values.
observable: enrichment ratio

// known answers, use as guide
QIWT : 20.8
EIAA : ≤ 0.25
KYAM : ≤ 0.25
MEWT : 34.7
SIMD : 4.7
ITGV : ≤ 0.25
KSVM : ≤ 0.25
ICPL : ≤ 0.25

Query: Which measured enrichment ratio value corresponds to SLYY ?
Reply: ≤ 0.25

Query: Which measured enrichment ratio value corresponds to AIMV ?
Reply: 5.05

Query: Which measured enrichment ratio value corresponds to MPWT ?
Reply: ≤ 0.25
